- SYSTEM_TESTED: HBsAg of HBV genotype B (AF 121245) (Hepatitis B virus)
- Sequence (Q9PWW3 175-400): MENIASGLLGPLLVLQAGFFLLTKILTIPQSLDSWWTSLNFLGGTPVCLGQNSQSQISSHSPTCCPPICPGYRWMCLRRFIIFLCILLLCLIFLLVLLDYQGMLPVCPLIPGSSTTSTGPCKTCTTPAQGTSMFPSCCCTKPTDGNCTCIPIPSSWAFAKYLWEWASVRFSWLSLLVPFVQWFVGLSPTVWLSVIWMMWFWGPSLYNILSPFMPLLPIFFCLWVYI
- TEST_DETAILS: sandwich ELISA, captured HBsAg from culture supernatant
pIC50 listing for selected binders.
Friendly reminder that pIC50 comes from taking -log10 of the concentration in mol/L.

As a guide, the following entries are already answered.
| BINDER | QUANTITATIVE_READOUT |
| --- | --- |
| NOV3834 (antibody, human IgG1, kappa, V domains shown, Full human IgG1 (kappa) expressed in CHO cells) VH: QVQLVESGGGVVQPGRSLRLSCAASGFTFNRYGMHWVRQAPGKGLEWVAGIWHDGSHKYYADSLRGRFTISRDNAKNTLDLQLNRLRAEDTSVYYCVRQTNRGRLDDAFDIWGQGTMVTVSS VL: DIQMTQSPSSLSAAVGDRVTISCRASQTISSYLNWYQQKPGEAPKLLIYAASTLQSGVPSRFGGSGSGTDFTLTISSLQPEDSATYYCQQNYDTLWTFGQGTKVEIKR | 8.92 |
| NOV3838 (antibody, human IgG1, kappa, V domains shown, Full human IgG1 (kappa) expressed in CHO cells) VH: QVQLQESGGRLVRPGGSLRLSCAASGFIFTDYYMTWIRQAPGKGPEWIAFITSGGETTYYADSVKGRFTISRDNAKKSLFLQMYSLRADDTAVYYCVRAHFDLYQYDTRGDFTYYFDNWGLGTLVSVSS VL: EIVMTQSPATLSVSPGERVTLSCRASQSVSSSLAWYQQKPGRAPRLLIYGASTRATGVPARFSGGGSGTDFTLTISSLQSEDFAVYYCHQYINWPPGDTFGQGTRLDIKR | 10.30 |

Could you now consider this next binder?
Notebook: NOV3837 (antibody, human IgG1, kappa, V domains shown, Full human IgG1 (kappa) expressed in CHO cells) VH: QVQLQESGGRLVRPGGSLRLSCAASGFIFTDYYMTWIRQAPGKGPEWIAFITSGGETTYYADSVKGRFTISRDNAKKSLFLQMYSLRADDTAVYYCVRAHFDGYQYDTRGDFTYYFDNWGLGTLVSVSS VL: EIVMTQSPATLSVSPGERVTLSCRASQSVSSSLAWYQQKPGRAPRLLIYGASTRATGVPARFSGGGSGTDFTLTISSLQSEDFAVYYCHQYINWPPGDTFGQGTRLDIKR , pIC50 read as 10.16
